# Tested on: chloroquine-sensitive Plasmodium falciparum (NF 54) parasites
# Measurement notes: in vitro antimalarial potency, standard assay
# Type: cell-based
# Test settings: Plasmodium falciparum; chloroquine-sensitive P. falciparum NF 54; quadruplicates; read-out: IC50 (nM), Antimalarial Activities in vitro
Observable: IC50 (nM)

(I) C[C@H]1[C@@H](CCc2cc(C(=O)O)c(C(=O)O)cc2CC[C@H]2O[C@@H]3O[C@@]4(C)CC[C@H]5[C@H](C)CC[C@@H]([C@H]2C)[C@@]35OO4)O[C@@H]2O[C@@]3(C)CC[C@H]4[C@H](C)CC[C@@H]1[C@@]24OO3
(II) C[C@@H]1CC[C@H]2[C@@H](C)C(=O)O[C@@H]3O[C@]4(C)CC[C@@H]1[C@]32OO4 [Artemisinin, artemisinin, reference compound]
Pick one: I or II . Which has the bigger IC50 number? Write the label of whichever entry you select. I
(I: 360 nM, II: 6.6 nM)
